Measured values drawn from the Biogen ADME set (Fang et al. 2023) for this set.

# settings: pH 6.8
# Lookup of reported aqueous solubility keyed by entry
Report the figure in mg/mL without appending any unit label.

CCc1ccccc1NC(=O)CCn1ccnc1-c1ccc2c(c1)OCO2    0.042
Nc1nc(N)c2c(Cl)c(Br)ccc2n1    0.0246
O=C(C1CC1)N1CCCC(C(=O)N2CCc3ccccc3C2Cc2ccccc2)C1 (stereo not given)    0.045
Cc1ccc(C(=O)O)cc1NS(=O)(=O)c1csc(C(=O)Nc2ccccc2)c1    0.0615
O=c1[nH]c2nc(N3CCc4ccccc4C3)ncc2c(=O)n1-c1ccccc1    0.0002
O=C(Nc1nncs1)c1ccc(N2CCC3(CCCCC3)C2)nc1    0.00066
Cc1cc(CCCC(=O)NC[C@H]2CC[C@H](c3ccc(C(N)=O)c(C)n3)CC2)ccc1F    0.00318
CCOC(=O)c1cccnc1-c1ccc2[nH]ccc2c1    0.0368
Clc1ccc2oc(/C=C/c3csnn3)nc2c1    0.00019
CCCNC(=O)c1ccnc(N(C)C)c1    0.0381

The record that follows has no aqueous solubility shown yet.
Quick note, aqueous solubility for "COc1ccccc1NC(=O)CSc1nc(C(C)(C)C)nc2ccccc12" landed at 0.00027

###

Labelling: fraction unbound, human plasma reported below 0.03 becomes Yes; at or above becomes No.

COc1ccc(Cl)cc1C(=O)NCCc1ccc(S(=O)(=O)NC(=O)NC2CCCCC2)cc1    Yes
CC#CC(=O)N[C@H]1CCCN(c2c(F)cc(C(N)=O)c3[nH]c(C)c(C)c23)C1    Yes
O=C(Nc1cccc(-c2nncn2C2CC2)c1)c1cc(-n2cnc(C3CC3)c2)ccn1    Yes
Cc1c(F)cccc1NC(=O)CN1[C@H](Cc2ccccc2)C[C@]2(C)NC(=O)CCC[C@H]12    No
OCC1CCCCN1Cc1ccc(-c2ccccc2)cc1 (stereo not given)    No

Task: is_below(fraction unbound, human plasma, 0.03) for "CCc1nc(C)cn2nc(-c3cc(=O)n4cc(C5CCN(C)CC5)cc(C)c4n3)cc12" ?
Result: No

Task: is_below(fraction unbound, human plasma, 0.03) for "C=CC(=O)N1CCC([C@@H]2CCNc3c(C(N)=O)c(-c4ccc(Oc5ccccc5)cc4)nn32)CC1" ?
Result: No

Task: is_below(fraction unbound, human plasma, 0.03) for "O=C(CCNC(=O)c1ccc(OC(F)(F)F)cc1)N[C@@H]1CCCc2ccccc21" ?
Result: No

Task: is_below(fraction unbound, human plasma, 0.03) for "O=C(Nc1cccc2ncccc12)[C@H]1CCCN(S(=O)(=O)c2ccccc2)C1" ?
Result: No

Task: is_below(fraction unbound, human plasma, 0.03) for "N#CC[C@H](C1CCCC1)n1cc(-c2ncnc3[nH]ccc23)cn1" ?
Result: No

###

# settings: pH 6.8
test readout: aqueous solubility (µg/mL)
Report the figure in µg/mL without appending any unit label.

C=CCn1cc(CNCc2csc3ccc(Cl)cc23)c(C)n1    21.4
Nc1nc(-c2ccccc2)c(C(=O)Nc2ccc(Cl)c(Cl)c2)s1    0.5
CCCCNC(=O)c1ccc2c(c1)nnn2C    26
Cc1ccc(C(=O)NCC#Cc2ccccc2)cn1    44.5

Quick note, aqueous solubility for "CCN(C(=O)CN1CCNC(=O)C1)c1ccc(F)cc1" landed at 34.8

Quick note, aqueous solubility for "COc1ccc(-c2ccc(CN(CCN3CCOCC3)Cc3cccnc3)cc2)cc1" landed at 63.2
